Assay: solvent given as SMILES
Settings: in CC#N
ENDPOINT: absorption maximum (nm)
Kindly provide the numeric value in nm only, without the unit symbol.

In: Item `CCN(CC)c1ccc(-c2ccc(-c3nc(N4CCOCC4)c4ccccc4n3)s2)cc1` has what recorded absorption maximum?
Out: 401

In: Item `O=[N+]([O-])c1ccc(/C=C/c2c[nH]c3ccccc23)cc1` has what recorded absorption maximum?
Out: 410

In: Item `Cc1cc2nc3[nH]c(=O)[nH]c(=O)c3nc2cc1C` has what recorded absorption maximum?
Out: 380

In: Item `COc1cc(Br)cc2cc(-c3cc4cc(Br)cc(OC)c4oc3=O)oc12` has what recorded absorption maximum?
Out: 353

In: Item `COc1cc(-c2nc3c4cccnc4c4ncccc4c3[nH]2)c(OC)cc1/C=C/c1nc2ccccc2[nH]1` has what recorded absorption maximum?
Out: 398
